# Tested on: Klebsiella aerogenes DSM 30053
# assay-protocol: fold change of Putrescine concentration vs plate DMSO controls (fold change (ratio)); higher = more amine produced, active = hit call of the paper (significant change in both replicates, either direction)
# condition-set: incubation time: 27 h, anaerobic, 37 °C
Would you mind telling me the reported fold change of Putrescine concentration of each entry?
Give the figure by itself; no unit, no explanation.

Query :: Provide one value: measured fold change of Putrescine concentration of COc1cc(NS(=O)(=O)c2ccc(N)cc2)ncn1 [Sulfamonomethoxine] (20 µM)
Result :: 1.02

Query :: Provide one value: measured fold change of Putrescine concentration of COc1ccc2c(c1)c(CC(=O)OC/C=C(\C)CC/C=C(\C)CCC=C(C)C)c(C)n2C(=O)c1ccc(Cl)cc1 [Indometacin farnesil] (20 µM)
Result :: 1.01

Query :: Provide one value: measured fold change of Putrescine concentration of Nc1ccn([C@@H]2O[C@H](CO)[C@@H](O)[C@@H]2O)c(=O)n1 [Cytarabine] (20 µM)
Result :: 1.02

Query :: Provide one value: measured fold change of Putrescine concentration of CN1C(C(=O)Nc2ccccn2)=C(O)c2sccc2S1(=O)=O [Tenoxicam] (20 µM)
Result :: 1.01

Query :: Provide one value: measured fold change of Putrescine concentration of O=c1[nH]c(=O)n([C@H]2C[C@H](O)[C@@H](CO)O2)cc1C(F)(F)F [Trifluridine] (20 µM)
Result :: 0.972

* * *

# System: Escherichia coli IAI1
# assay-protocol: fold change of Putrescine concentration vs plate DMSO controls (fold change (ratio)); higher = more amine produced, active = hit call of the paper (significant change in both replicates, either direction)
# condition-set: incubation time: 27 h, anaerobic, 37 °C
Would you mind telling me the reported fold change of Putrescine concentration of each entry?

Query :: Provide one value: measured fold change of Putrescine concentration of C[C@H](CCC(=O)O)[C@H]1CC[C@H]2[C@@H]3[C@H](O)C[C@@H]4C[C@H](O)CC[C@]4(C)[C@H]3CC[C@]12C [Chenodiol] (20 µM)
Result :: 1 (inactive)

Query :: Provide one value: measured fold change of Putrescine concentration of NS(=O)(=O)c1cc(C(=O)NN2C[C@@H]3[C@H]4CC[C@H](C4)[C@@H]3C2)ccc1Cl [Tripamide] (20 µM)
Result :: 0.995 (inactive)

Query :: Provide one value: measured fold change of Putrescine concentration of NC(=O)c1ncn([C@@H]2O[C@H](CO)[C@@H](O)[C@H]2O)c1O [Mizoribine] (20 µM)
Result :: 1.02 (inactive)

* * *

# Test system: Ruminococcus gnavus DSM 108212
# assay-protocol: fold change of Tryptamine concentration vs plate DMSO controls (fold change (ratio)); higher = more amine produced, active = hit call of the paper (significant change in both replicates, either direction)
# condition-set: incubation time: 27 h, anaerobic, 37 °C
readout-name: fold change of Tryptamine concentration

Query :: Provide one value: measured fold change of Tryptamine concentration of N[C@H]1CONC1=O [(S,-) Cycloserine] (20 µM)
Result :: 0.905 (inactive)

Query :: Provide one value: measured fold change of Tryptamine concentration of Cc1ccc(C(=O)c2cc(O)c(O)c([N+](=O)[O-])c2)cc1 [Tolcapone] (20 µM)
Result :: 0.983 (inactive)

Query :: Provide one value: measured fold change of Tryptamine concentration of C[C@]12CC[C@H]3C(=CCc4cc(O)ccc43)[C@@H]1CCC2=O [Equilin] (20 µM)
Result :: 0.996 (inactive)

Query :: Provide one value: measured fold change of Tryptamine concentration of NC(N)=Nc1nc(CSCC/C(N)=N/S(N)(=O)=O)cs1 [Famotidine] (20 µM)
Result :: 1.03 (inactive)
